FYI, the data here is from ChEMBL document CHEMBL4689842.

# Test system: Fibroblast
# Assay info: Multiplex assay against human fibroblast
# Format: toxicity, cell-based
# Condition label: 48 h, 1 µM, compound concentration 1 uM, replicate 2
Recorded endpoint: Population Mitochondria Different-Phenotype (%)
# unit: % | format: bare number

INPUT: Note down Population Mitochondria Different-Phenotype (%) recorded for O=C(O)c1ccc2cc(-c3ccc(O)c(C45CC6CC(CC(C6)C4)C5)c3)ccc2c1 [O-DEMETHYLATED ADAPALENE]
OUTPUT: 1

INPUT: Note down Population Mitochondria Different-Phenotype (%) recorded for CCc1cc2c(cc1CC)CC(NC[C@H](O)c1ccc(O)c3[nH]c(=O)ccc13)C2 [INDACATEROL]
OUTPUT: 4

INPUT: Note down Population Mitochondria Different-Phenotype (%) recorded for CNc1oc(-c2cccc3ccccc23)nc1C#N
OUTPUT: 0

INPUT: Note down Population Mitochondria Different-Phenotype (%) recorded for Cc1cc2c(cc1N1C(=O)c3cccc4c(CCCO)ccc(c34)C1=O)n(C)c(=O)n2C
OUTPUT: 1

INPUT: Note down Population Mitochondria Different-Phenotype (%) recorded for CC(=O)c1cc(-c2cc(C(=O)NC3CC3)ccc2C)c2ncccn12
OUTPUT: 1

---

# System: U2OS
# Assay info: Multiplex assay against U2OS
# Type: toxicity, cell-based
# Condition label: human, 48 h, 1 µM, compound concentration 1 uM, replicate 2
Recorded endpoint: Population Mitochondria Different-Phenotype (%)
# unit: % | format: bare number

INPUT: Note down Population Mitochondria Different-Phenotype (%) recorded for CCC(=O)O[C@]1(C(=O)SCF)[C@H](C)C[C@H]2[C@@H]3C[C@H](F)C4=CC(=O)C=C[C@]4(C)[C@@]3(F)[C@@H](O)C[C@@]21C [FLUTICASONE PROPIONATE]
OUTPUT: 12

INPUT: Note down Population Mitochondria Different-Phenotype (%) recorded for CC(C)N1CCC(C)(C)c2cc(C#Cc3ccc(C(=O)O)cc3)ccc21
OUTPUT: 9

INPUT: Note down Population Mitochondria Different-Phenotype (%) recorded for O=C(O)c1ccc2cc(-c3ccc(O)c(C45CC6CC(CC(C6)C4)C5)c3)ccc2c1
OUTPUT: 42

INPUT: Note down Population Mitochondria Different-Phenotype (%) recorded for COc1cc2c(NC3CCN(C(C)C)CC3)nc(N3CCC(F)(F)CC3)nc2cc1OCCCN1CCCC1
OUTPUT: 8

INPUT: Note down Population Mitochondria Different-Phenotype (%) recorded for CNc1oc(-c2cccc3ccccc23)nc1C#N
OUTPUT: 8

INPUT: Note down Population Mitochondria Different-Phenotype (%) recorded for Cc1cc2c(cc1N1C(=O)c3cccc4c(CCCO)ccc(c34)C1=O)n(C)c(=O)n2C
OUTPUT: 49

INPUT: Note down Population Mitochondria Different-Phenotype (%) recorded for CCc1cc2c(cc1CC)CC(NC[C@H](O)c1ccc(O)c3[nH]c(=O)ccc13)C2
OUTPUT: 12

INPUT: Note down Population Mitochondria Different-Phenotype (%) recorded for Cl.Cl.Nc1ncnc2c1c(-c1cccc(OCc3ccccc3)c1)cn2[C@H]1C[C@@H](CN2CCC2)C1
OUTPUT: 44

INPUT: Note down Population Mitochondria Different-Phenotype (%) recorded for Nc1nc2c(c(N3CCNCC3)n1)CCC1=C2[C@@H]2CCCC[C@@H]2O1
OUTPUT: 17

INPUT: Note down Population Mitochondria Different-Phenotype (%) recorded for CC(=O)c1cc(-c2cc(C(=O)NC3CC3)ccc2C)c2ncccn12
OUTPUT: 20

INPUT: Note down Population Mitochondria Different-Phenotype (%) recorded for CCCn1c(=O)c2[nH]c(C34CC5CC(CC3C5)C4)nc2n(CCC)c1=O
OUTPUT: 21

INPUT: Note down Population Mitochondria Different-Phenotype (%) recorded for CCn1c(-c2nonc2N)nc2cnc(Oc3cccc(NC(=O)c4ccc(OCCN5CCOCC5)cc4)c3)cc21 [GSK-269962A]
OUTPUT: 11

INPUT: Note down Population Mitochondria Different-Phenotype (%) recorded for COc1ccc(NS(=O)(=O)c2sc3ccc(Cl)cc3c2C)cc1N1CCNCC1.Cl
OUTPUT: 20

INPUT: Note down Population Mitochondria Different-Phenotype (%) recorded for Cc1nc(Cc2cccc(C(F)(F)F)c2)sc1-c1ccc(C(N)=O)nc1 [TP-024n]
OUTPUT: 10

INPUT: Note down Population Mitochondria Different-Phenotype (%) recorded for Nc1ccc(C(=O)Nc2cccc(-c3nc(N4CCOCC4)c4oc5ncccc5c4n3)c2)cn1
OUTPUT: 22
